meta.source: the supplement of paper PMC8617591

# System: Mycobacterium tuberculosis Erdman (autoluminescent)
# procedureText: Einf, fitted maximum growth inhibition of combination (fraction); higher = stronger maximal inhibition
# recordedConditions: in vitro model: cholesterol 0.05 mM; time point: constant (~7 days, model-specific)

compound	Einf
CC(=O)NC[C@H]1CN(c2ccc(N3CCOCC3)c(F)c2)C(=O)O1 [linezolid] + COc1c(N2C[C@@H]3CCCN[C@@H]3C2)c(F)cc2c(=O)c(C(=O)O)cn(C3CC3)c12 [moxifloxacin]	0.679
COc1c(N2C[C@@H]3CCCN[C@@H]3C2)c(F)cc2c(=O)c(C(=O)O)cn(C3CC3)c12 [moxifloxacin] + CO[C@H]1/C=C/O[C@@]2(C)Oc3c(C)c(O)c4c(O)c(c(/C=N/N5CCN(C)CC5)c(O)c4c3C2=O)NC(=O)/C(C)=C\C=C\[C@H](C)[C@H](O)[C@@H](C)[C@@H](O)[C@@H](C)[C@H](OC(C)=O)[C@@H]1C [rifampicin]	0.62
O=[N+]([O-])c1cn2c(n1)OC[C@@H](OCc1ccc(OC(F)(F)F)cc1)C2 [pretomanid] + NC(=O)c1cnccn1 [pyrazinamide]	0.752
CC(C)/N=c1\cc2n(-c3ccc(Cl)cc3)c3ccccc3nc-2cc1Nc1ccc(Cl)cc1 [clofazimine] + CO[C@H]1/C=C/O[C@@]2(C)Oc3c(C)c(O)c4c(O)c(c(/C=N/N5CCN(C6CCCC6)CC5)c(O)c4c3C2=O)NC(=O)/C(C)=C\C=C\[C@H](C)[C@H](O)[C@@H](C)[C@@H](O)[C@@H](C)[C@H](OC(C)=O)[C@@H]1C [rifapentine]	0.651
CC(C)/N=c1\cc2n(-c3ccc(Cl)cc3)c3ccccc3nc-2cc1Nc1ccc(Cl)cc1 [clofazimine] + NNC(=O)c1ccncc1 [isoniazid]	0.719
CC(C)/N=c1\cc2n(-c3ccc(Cl)cc3)c3ccccc3nc-2cc1Nc1ccc(Cl)cc1 [clofazimine] + CO[C@H]1/C=C/O[C@@]2(C)Oc3c(C)c(O)c4c(O)c(c(/C=N/N5CCN(C)CC5)c(O)c4c3C2=O)NC(=O)/C(C)=C\C=C\[C@H](C)[C@H](O)[C@@H](C)[C@@H](O)[C@@H](C)[C@H](OC(C)=O)[C@@H]1C [rifampicin]	0.573
